Biological target: human PSMA (Homo sapiens (Human), UniProt Q04609)
Sequence (Q04609 whole entry): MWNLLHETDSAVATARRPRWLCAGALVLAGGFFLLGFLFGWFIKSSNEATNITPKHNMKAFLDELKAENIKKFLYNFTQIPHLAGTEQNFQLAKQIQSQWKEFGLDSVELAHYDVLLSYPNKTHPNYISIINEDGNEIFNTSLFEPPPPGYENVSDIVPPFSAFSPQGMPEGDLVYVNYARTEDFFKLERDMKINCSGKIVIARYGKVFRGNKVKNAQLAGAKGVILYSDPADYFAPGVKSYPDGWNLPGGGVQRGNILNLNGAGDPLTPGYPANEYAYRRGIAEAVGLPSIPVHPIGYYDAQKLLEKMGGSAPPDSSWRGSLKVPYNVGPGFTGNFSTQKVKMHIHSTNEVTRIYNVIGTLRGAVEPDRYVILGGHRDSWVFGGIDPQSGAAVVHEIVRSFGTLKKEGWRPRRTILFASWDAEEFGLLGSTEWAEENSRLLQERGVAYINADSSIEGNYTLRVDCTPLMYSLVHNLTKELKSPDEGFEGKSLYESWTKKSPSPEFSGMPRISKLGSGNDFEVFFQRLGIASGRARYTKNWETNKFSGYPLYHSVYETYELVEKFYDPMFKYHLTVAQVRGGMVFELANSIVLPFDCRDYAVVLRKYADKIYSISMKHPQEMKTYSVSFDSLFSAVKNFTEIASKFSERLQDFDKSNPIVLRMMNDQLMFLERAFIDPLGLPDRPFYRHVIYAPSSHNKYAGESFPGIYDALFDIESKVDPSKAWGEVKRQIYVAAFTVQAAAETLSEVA
Experiment: Enzymatic assay for in vitro evaluation of PSMA inhibitors (fluorescent assay of PSMA activity, NAAG substrate, OPA detection of glutamate)
Type: biochemical
Settings: compound at 10 μM
Collected PSMA Blkg % (10 μM) values appear next to each entry.
Numeric answer only, unit % assumed.

Example cases with answers are listed next.
>>> datavalue("CN(C(=O)N[C@@H](CCC(=O)O)C(=O)O)[C@@H](CCCCNCc1ccc(F)cc1)C(=O)O [P184]")
10
>>> datavalue("CN(C(=O)N[C@@H](CCC(=O)O)C(=O)O)[C@@H](CCCCNC(=O)Cn1cc(Cn2ccnc2[N+](=O)[O-])nn1)C(=O)O [P044]")
62
>>> datavalue("O=C(O)CC[C@H](NC(=O)OCC(=O)O)C(=O)O [P027]")
31
>>> datavalue("O=C(O)CC[C@H](NC(=O)C[C@H](NC(=O)CCCc1ccc(-n2cc(CCCF)nn2)cc1)C(=O)O)C(=O)O [P115]")
36
>>> datavalue("O=C(O)CC[C@H](NC(=O)C[C@H](NC(=O)CCCc1ccc([N+](=O)[O-])cc1)C(=O)O)C(=O)O [P123]")
17

Prompt: Fill in: PSMA Blkg % (10 μM) of C[C@H](NC(=O)CCCN=[N+]=[N-])C(=O)N[C@@H](CCC(=O)O)C(=O)O [P031] is ___
Response: 19

Prompt: Fill in: PSMA Blkg % (10 μM) of O=C(O)CC[C@H](NC(=O)N(O)[C@@H](CCCCNC(=O)c1ccc(OCCF)cc1)C(=O)O)C(=O)O [P167] is ___
Response: 93

Prompt: Fill in: PSMA Blkg % (10 μM) of O=C(O)CC[C@@H](C(=O)O)N(O)C(=O)N[C@@H](CCCCNC(=O)c1ccc(F)cc1)C(=O)O [P162] is ___
Response: 79
